Values from PubChem BioAssay (EPA / NIEHS)

- Read-out: adenosine kinase (ADK) gene, ADK (gene 132)
- test_method_notes: LTEA_HepaRG_ADK: Life Technologies and Expression Analysis (LTEA) Assay for adenosine kinase (ADK) gene using HepaRG (AID 2283471)
- condition_info: mRNA level, 48 h; actives raise or lower the signal
- Method: LTEA_HepaRG is a cell based, multiplexed-readout assay that uses HepaRG, a human liver cell line, with measurements taken at 48 hours after chemical dosing on a 96-well plate.LTEA_HepaRG_ADK is one of 102 assay component(s) measured in the LTEA HepaRG cell culture assay. It is a marker of Steatosis.Data from the assay component LTEA_HepaRG_ADK was analyzed into 1 endpoint. […]
Activity calls are given as the source filed them. How the source made its calls: active means hit-call score of the fitted dose curve at least 0.9, where 1 is the maximum; inactive means score below 0.9.
Give your call using only these classes: yes (active), no (inactive)

Look over these answered cases.
Oc1ccccc1-c1ccccc1 :: no
CNC(=O)ON=CC(C)(C)SC :: no
COC(=O)C=C(C)OP(=O)(OC)OC :: no

[in] Dear colleague, could you share the recorded outcome for `COC(=O)N(OC)c1ccccc1COc1ccn(-c2ccc(Cl)cc2)n1` when you have a moment?
[out] yes

[in] Dear colleague, could you share the recorded outcome for CC1COC(Cn2cncn2)(c2ccc(Oc3ccc(Cl)cc3)cc2Cl)O1 (configuration not stated) when you have a moment?
[out] no

[in] Dear colleague, could you share the recorded outcome for `CCCCNC(=O)n1c(NC(=O)OC)nc2ccccc21` when you have a moment?
[out] no

[in] Dear colleague, could you share the recorded outcome for `Cc1ccc(-c2c(Cl)nc(C#N)n2S(=O)(=O)N(C)C)cc1` when you have a moment?
[out] yes

====

- Read-out: Interferon-gamma inducible Protein 10 (IP10), CXCL10 (gene 3627)
- test_method_notes: BSK_BE3C_IP10: BioMAP Diversity Plus: BE3C Assay for Interferon-gamma inducible Protein 10 (IP10) Biomarker Activity (AID 2283034)
- condition_info: primary human bronchial epithelial cells; actives raise or lower the signal
- Protocol: BSK_BE3C is a cell-based, multiplexed-readout assay that uses bronchial epithelial cell, a human lung primary cell, with measurements taken at 24 hours after chemical dosing in a 96-well plate.BSK_BE3C_IP10 is an assay component measured in the BSK_BE3C assay. It measures IP-10 antibody related to regulation of gene expression using ELISA technology.Data from the assay component BSK_BE3C_IP10 was analyzed into 1 assay endpoint. […]
Active and inactive are the calls of the source. The calls were made as follows: active = hit-call score of the fitted dose curve at least 0.9, where 1 is the maximum; inactive = score below 0.9.
Give your call using only these classes: active, inactive

Look over these answered cases.
O=C(O)c1nc(Cl)ccc1Cl :: inactive
COC(=O)c1ccccc1C(=O)OC :: inactive

We next turn to a different molecule, shown below.
[in] Dear colleague, could you share the recorded outcome for `Oc1ccccc1-c1ccccc1` when you have a moment?
[out] inactive

====

- Read-out: Interleukin-1 alpha (IL1a), IL1A (gene 3552)
- test_method_notes: BSK_BE3C_IL1a: BioMAP Diversity Plus: BE3C Assay for Interleukin-1 alpha (IL1a) Biomarker Activity (AID 2283016)
- condition_info: primary human bronchial epithelial cells; actives raise or lower the signal
Calls of active or inactive are those of the source. The calls were made as follows: active = hit-call score of the fitted dose curve at least 0.9, where 1 is the maximum; inactive = score below 0.9.
Give your call using only these classes: Y = active, N = inactive

Look over these answered cases.
CC(Oc1ccc(Cl)cc1Cl)C(=O)O (stereo unspecified) :: N
Fc1ccc(Oc2ccnc3cc(Cl)cc(Cl)c23)cc1 :: Y
N#CC(CCc1ccc(Cl)cc1)(Cn1cncn1)c1ccccc1 (stereo unspecified) :: N
CN(C)C(=S)SSC(=S)N(C)C :: Y
CC1COC(Cn2cncn2)(c2ccc(Oc3ccc(Cl)cc3)cc2Cl)O1 (stereo unspecified) :: Y
Cc1c(F)c(F)c(COC(=O)C2C(/C=C(\Cl)C(F)(F)F)C2(C)C)c(F)c1F (stereo unspecified) :: N

[in] Dear colleague, could you share the recorded outcome for `Cc1cc(Cl)ccc1OCC(=O)O` when you have a moment?
[out] N

====

- test_method_notes: APR_HepG2_StressKinase_1hr: Apredica 1-hour HepG2 Assay for Stress Kinase (AID 2282906)
- condition_info: HepG2 stress kinase (phospho-c-Jun) imaging, actives raise or lower the signal
Activity calls are given as the source filed them. Rule for the calls: active = hit-call score of the fitted dose curve at least 0.9, where 1 is the maximum; inactive = score below 0.9.
Give your call using only these classes: yes (1) = active, no (0) = inactive

COc1nc(C)nc(NC(=O)NS(=O)(=O)c2ccccc2CCC(F)(F)F)n1 :: no (0)

[in] Dear colleague, could you share the recorded outcome for `COC(=O)c1ccccc1C(=O)OC` when you have a moment?
[out] no (0)

[in] Dear colleague, could you share the recorded outcome for C=CC1(C)OC(=O)N(c2cc(Cl)cc(Cl)c2)C1=O (stereo unspecified) when you have a moment?
[out] no (0)

[in] Dear colleague, could you share the recorded outcome for `CC(C)Oc1cc(-n2nc(C(C)(C)C)oc2=O)c(Cl)cc1Cl` when you have a moment?
[out] no (0)

[in] Dear colleague, could you share the recorded outcome for CC1COC(Cn2cncn2)(c2ccc(Oc3ccc(Cl)cc3)cc2Cl)O1 (stereo unspecified) when you have a moment?
[out] no (0)

[in] Dear colleague, could you share the recorded outcome for `O=C(Nc1ccccc1)Nc1ccnc(Cl)c1` when you have a moment?
[out] no (0)

[in] Dear colleague, could you share the recorded outcome for COP(N)(=O)SC (stereo unspecified) when you have a moment?
[out] no (0)

[in] Dear colleague, could you share the recorded outcome for `O=C(O)c1nc(Cl)ccc1Cl` when you have a moment?
[out] no (0)

[in] Dear colleague, could you share the recorded outcome for `CC(C)(C)c1ccc(CSc2cnn(C(C)(C)C)c(=O)c2Cl)cc1` when you have a moment?
[out] no (0)

[in] Dear colleague, could you share the recorded outcome for CCON=C(CC)C1=C(O)CC(c2c(C)cc(C)cc2C)CC1=O (stereo unspecified) when you have a moment?
[out] no (0)

[in] Dear colleague, could you share the recorded outcome for `Cc1ccc(-c2c(Cl)nc(C#N)n2S(=O)(=O)N(C)C)cc1` when you have a moment?
[out] no (0)

[in] Dear colleague, could you share the recorded outcome for CCCC1COC(Cn2cncn2)(c2ccc(Cl)cc2Cl)O1 (stereo unspecified) when you have a moment?
[out] no (0)

[in] Dear colleague, could you share the recorded outcome for `CNC(=O)ON=CC(C)(C)SC` when you have a moment?
[out] no (0)

[in] Dear colleague, could you share the recorded outcome for `COC(=O)N(OC)c1ccccc1COc1ccn(-c2ccc(Cl)cc2)n1` when you have a moment?
[out] no (0)

[in] Dear colleague, could you share the recorded outcome for `COc1cnc(OC)n2nc(NS(=O)(=O)c3c(OCC(F)F)cccc3C(F)(F)F)nc12` when you have a moment?
[out] no (0)

[in] Dear colleague, could you share the recorded outcome for `Cc1cc(Cl)ccc1OCC(=O)O` when you have a moment?
[out] no (0)

====

- test_method_notes: CCTE_Shafer_MEA_dev_network_spike_duration_std: CCTE's Neural Network Formation Assay for Standard Deviation of Network Spike Duration, Shafer Lab (AID 2284052);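 further: area under curve of spike duration SD across recording days 5 to 12; hits are decreases in network spike duration SD versus DMSO vehicle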
- Procedure: CCTE_Shafer_MEA_dev assay is conducted using Axion Biosystems 48 well microelectrode array (MEA) plates and Maestro recording system. Each well of the MEA plate contains a grid of 16 microelectrodes embedded in the culture surface. Electrically active cells, such as neurons, can be cultured over the electrodes, and electrical activity in these cells can be recorded extracellularly. […]
Active and inactive are the calls of the source. How the source made its calls: active means hit-call score of the fitted dose curve at least 0.9, where 1 is the maximum; inactive means score below 0.9.
recorded_endpoint: AC50

Reference set, count: 6
CCCCOC(=O)c1ccccc1C(=O)OCCCC :: inactive
COP(=S)(OC)Oc1nc(Cl)c(Cl)cc1Cl :: inactive
C=CCC1=C(C)[C@@H](OC(=O)[C@@H]2[C@@H](C=C(C)C)C2(C)C)CC1=O :: inactive
C=CCC1=C(C)C(OC(=O)C2C(C=C(C)C)C2(C)C)CC1=O (stereo unspecified) :: inactive
C=CC1(C)OC(=O)N(c2cc(Cl)cc(Cl)c2)C1=O (stereo unspecified) :: inactive
CCOc1cc(Oc2ccc(C(F)(F)F)cc2Cl)ccc1[N+](=O)[O-] :: 1130 nM (active)

The recorded AC50 for entry `COc1ccc(C(c2ccc(OC)cc2)C(Cl)(Cl)Cl)cc1` equals 1970 nM (active)

The recorded AC50 for entry `CCCCNC(=O)n1c(NC(=O)OC)nc2ccccc21` equals inactive

The recorded AC50 for entry `CCNc1nc(Cl)nc(NC(C)C)n1` equals inactive

The recorded AC50 for entry `CN(C)C(=S)SSC(=S)N(C)C` equals 7.05 nM (active)

The recorded AC50 for entry `Cc1ccc(-c2c(Cl)nc(C#N)n2S(=O)(=O)N(C)C)cc1` equals inactive

====

- test_method_notes: BSK_SAg_SRB: Viability Assessment in the BioMAP Diversity Plus: SAg Assay (AID 2283096);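 further: cells read one day after compound addition; hits may be either gain or loss of signal compared with DMSO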
- condition_info: primary human HUVEC with PBMC
Activity calls are given as the source filed them. Rule for the calls: active = hit-call score of the fitted dose curve at least 0.9, where 1 is the maximum; inactive = score below 0.9.
Give your call using only these classes: active, inactive

Look over these answered cases.
CON(C)C(=O)Nc1ccc(Cl)c(Cl)c1 :: inactive
COC(=O)c1ccccc1C(=O)OC :: inactive
COP(=S)(OC)Oc1nc(Cl)c(Cl)cc1Cl :: inactive

[in] Dear colleague, could you share the recorded outcome for `CCCCNC(=O)OCC#CI` when you have a moment?
[out] active

[in] Dear colleague, could you share the recorded outcome for CCOC(=O)CC(SP(=S)(OC)OC)C(=O)OCC (stereo not given) when you have a moment?
[out] inactive

[in] Dear colleague, could you share the recorded outcome for `CCCCNC(=O)n1c(NC(=O)OC)nc2ccccc21` when you have a moment?
[out] active
